Every entry's value here was drawn from PubChem BioAssay.

tested on: transactivating tegument protein VP16 (Human herpesvirus 1), Gal4-VP16 luciferase reporter; assay: VP16 transactivation inhibitors, counter-screen for SRC3 inhibitor project, cell-based, luminescence, high throughput (AID 588794); conditions: mammalian cells, VP16-driven luciferase reporter luminescence; at 3.6 µM; hits give high values
compounds and their reported inhibition
I only need the number, in %, no unit after it.

Record excerpt, results attached:
smiles input: Cn1c(/C=C/c2ccc(Cl)cc2Cl)c([N+](=O)[O-])c(=O)n(C)c1=O
target of assay: transactivating tegument protein VP16 (Human herpesvirus 1), Gal4-VP16 luciferase reporter
unit tag: %
inhibition: 51.5
//
smiles input: O=C(N/N=C/c1ccccc1O)c1cccc(C(F)(F)F)c1
target of assay: transactivating tegument protein VP16 (Human herpesvirus 1), Gal4-VP16 luciferase reporter
unit tag: %
inhibition: 43.2
//
smiles input: CCOC(=O)C(=Cc1ccccc1OC)C(=O)OCC
target of assay: transactivating tegument protein VP16 (Human herpesvirus 1), Gal4-VP16 luciferase reporter
unit tag: %
inhibition: 25.4
//
smiles input: CCCCN(CCCC)c1ncnc2nc[nH]c12
target of assay: transactivating tegument protein VP16 (Human herpesvirus 1), Gal4-VP16 luciferase reporter
unit tag: %
inhibition: 30.1

Please look at the following compound next.
Given O=C(Nc1cc(C(=O)N2CCCC2)ccc1N1CCCC1)c1ccccc1F , state its recorded inhibition.
13.1
